These data points were gathered from paper PMC7922564.

I'd be grateful if you could share measured Number of TLC spots for these entries.
# assay-summary: Stability in acidic and basic conditions (TLC)
# Type: physicochemical
# condition-parameters: acidic conditions, 10 min; 1 = stable
Give bare numbers.

Sample answers from the record:
item-smiles | Number of TLC spots
Cl.O=C1N=C(N2CCC(N3CCOCC3)CC2)N/C1=C\c1cccc2ccccc12 | 1
NC1=N/C(=C\c2ccc(-c3ccccc3)cc2)C(=O)N1CCCN1CCOCC1 | 2
O=C1NC(N2CCC(N3CCOCC3)CC2)=N/C1=C\c1ccc(Oc2ccccc2)cc1 | 1
NC1=N/C(=C\c2ccc3c(c2)Cc2ccccc2-3)C(=O)N1CCCN1CCOCC1 | 1

Asked: Consider the compound shown here: O=C1NC(N2CCC(N3CCOCC3)CC2)=N/C1=C\c1cccc(Oc2ccccc2)c1 What is its recorded Number of TLC spots?
Given back: 2

###

# Test system: K. aerogenes Ea-289 (overexpression of AcrAB-TolC)
# assay-summary: MIC of compounds, K. aerogenes Ea-289
# Assay type: cell-based
# condition-parameters: Klebsiella aerogenes, read-out: Minimal Inhibitory Concentration (MIC)
readout-kind: MIC

compound | study-system | readout-kind | observed-value
NC1=N/C(=C\c2c3ccccc3cc3ccccc23)C(=O)N1CCCN1CCOCC1 [Compound 20] | K. aerogenes Ea-289 (overexpression of AcrAB-TolC) | MIC | > 2000 µM
NC1=N/C(=C\c2cccc(Oc3ccccc3)c2)C(=O)N1CCCN1CCOCC1 [Compound 16] | K. aerogenes Ea-289 (overexpression of AcrAB-TolC) | MIC | > 2000 µM
NC1=N/C(=C\c2ccc(-c3ccccc3)cc2)C(=O)N1CCCN1CCOCC1 [Compound 15] | K. aerogenes Ea-289 (overexpression of AcrAB-TolC) | MIC | > 2000 µM

For each of the compounds below, note its MIC.
1. O=C1NC(N2CCC(N3CCOCC3)CC2)=N/C1=C\c1c2ccccc2cc2ccccc12 [Compound 13]
2. O=C1NC(N2CCOCC2)=N/C1=C\c1ccc(-c2ccccc2)cc1 [Compound 7]
3. NC1=N/C(=C\c2ccc(-c3ccccc3)cc2)C(=O)N1CCN1CCOCC1 [Compound 14]

Given back:
1: > 2000 µM; 2: > 2000 µM; 3: > 2000 µM

Asked: Consider the compound shown here: NC1=N/C(=C\c2ccc3c(c2)Cc2ccccc2-3)C(=O)N1CCCN1CCOCC1 [Compound 19] What is its recorded MIC?
Given back: > 2000 µM

###

I'd be grateful if you could share measured Number of TLC spots for these entries.
# assay-summary: Stability in acidic and basic conditions (TLC)
# Format: physicochemical
# condition-parameters: basic conditions, 1 h; 1 = stable
Numbers only.

Sample answers from the record:
item-smiles | Number of TLC spots
NC1=N/C(=C\c2ccc(-c3ccccc3)cc2)C(=O)N1CCCN1CCOCC1 | 1
Cl.O=C1N=C(N2CCC(N3CCOCC3)CC2)N/C1=C\c1cccc2ccccc12 | 2
NC1=N/C(=C\c2ccc3c(c2)Cc2ccccc2-3)C(=O)N1CCCN1CCOCC1 | 4
O=C1NC(N2CCC(N3CCOCC3)CC2)=N/C1=C\c1ccc(Oc2ccccc2)cc1 | 1

Asked: Consider the compound shown here: O=C1NC(N2CCC(N3CCOCC3)CC2)=N/C1=C\c1cccc(Oc2ccccc2)c1 What is its recorded Number of TLC spots?
Given back: 2

###

# assay-summary: Stability in acidic and basic conditions (TLC)
# Type: physicochemical
# condition-parameters: acidic conditions, 3 h; 1 = stable
readout-kind: Number of TLC spots
Answers are plain numbers.

Sample answers from the record:
item-smiles | Number of TLC spots
O=C1NC(N2CCC(N3CCOCC3)CC2)=N/C1=C\c1ccc(Oc2ccccc2)cc1 | 1
Cl.O=C1N=C(N2CCC(N3CCOCC3)CC2)N/C1=C\c1cccc2ccccc12 | 1
O=C1NC(N2CCC(N3CCOCC3)CC2)=N/C1=C\c1cccc(Oc2ccccc2)c1 | 2
NC1=N/C(=C\c2ccc(-c3ccccc3)cc2)C(=O)N1CCCN1CCOCC1 | 2

Please find the next molecule below.
Asked: Consider the molecule shown here: NC1=N/C(=C\c2ccc3c(c2)Cc2ccccc2-3)C(=O)N1CCCN1CCOCC1 What is its recorded Number of TLC spots?
Given back: 2

###

# assay-summary: Stability in acidic and basic conditions (TLC)
# Type: physicochemical
# condition-parameters: basic conditions, 24 h; 1 = stable
I'd be grateful if you could share measured Number of TLC spots for these entries.

Sample answers from the record:
item-smiles | Number of TLC spots
NC1=N/C(=C\c2ccc3c(c2)Cc2ccccc2-3)C(=O)N1CCCN1CCOCC1 | 4
O=C1NC(N2CCC(N3CCOCC3)CC2)=N/C1=C\c1cccc(Oc2ccccc2)c1 | 2
Cl.O=C1N=C(N2CCC(N3CCOCC3)CC2)N/C1=C\c1cccc2ccccc12 | 2
O=C1NC(N2CCC(N3CCOCC3)CC2)=N/C1=C\c1ccc(Oc2ccccc2)cc1 | 1

Please find the next compound below.
Asked: Consider the compound shown here: NC1=N/C(=C\c2ccc(-c3ccccc3)cc2)C(=O)N1CCCN1CCOCC1 What is its recorded Number of TLC spots?
Given back: 1

###

# Tested on: S. aureus ATCC 25923
# assay-summary: MIC determination (microdilution), S. aureus ATCC 25923
# Assay type: cell-based, Staphylococcus aureus
# condition-parameters: Staphylococcus aureus, ATCC25923, unstarred values of column MIC value/no precipitation; read-out: MIC value
readout-kind: MIC

Sample answers from the record:
item-smiles | readout-kind | observed-value
Cl.O=C1N=C(N2CCC(N3CCOCC3)CC2)S/C1=C\c1ccc2c(c1)Cc1ccccc1-2 | MIC | 62.5 µM
NC1=N/C(=C\c2c3ccccc3cc3ccccc23)C(=O)N1CCCN1CCOCC1 | MIC | 31.2 to 250 µM

For each of the compounds below, note its MIC.
1. Cl.O=C1N=C(N2CCC(N3CCOCC3)CC2)N/C1=C\c1cccc2ccccc12
2. NC1=N/C(=C\c2ccc3c(c2)Cc2ccccc2-3)C(=O)N1CCCN1CCOCC1
3. O=C1NC(N2CCC(N3CCOCC3)CC2)=N/C1=C\c1cccc(Oc2ccccc2)c1

Given back:
1: 31.2 to 250 µM; 2: 31.2 to 250 µM; 3: 31.2 to 250 µM

###

I'd be grateful if you could share measured melting point for these entries.

Sample answers from the record:
compound | readout-kind | observed-value
Cl.O=C1N=C(N2CCC(N3CCOCC3)CC2)S/C1=C\c1ccc2c(c1)Cc1ccccc1-2 | melting point | 244 to 246 °C
Cl.NC1=N/C(=C\c2cccc3ccccc23)C(=O)N1CCCN1CCOCC1 | melting point | 265 to 268 °C

For each of the compounds below, note its melting point.
1. Cl.O=C1N=C(NCCCN2CCOCC2)S/C1=C\c1ccc2c(c1)Cc1ccccc1-2
2. Cl.O=C1N=C(N2CCC(N3CCOCC3)CC2)N/C1=C\c1cccc2ccccc12 (hydrate or solvate)

Given back:
1: 243 to 245 °C; 2: 244 to 249 °C

###

I'd be grateful if you could share measured Number of TLC spots for these entries.
# assay-summary: Stability in acidic and basic conditions (TLC)
# Assay type: physicochemical
# condition-parameters: basic conditions, 3 h; 1 = stable
Give bare numbers.

Sample answers from the record:
molecule | Number of TLC spots
NC1=N/C(=C\c2ccc3c(c2)Cc2ccccc2-3)C(=O)N1CCCN1CCOCC1 [Compound 19] | 4
NC1=N/C(=C\c2ccc(-c3ccccc3)cc2)C(=O)N1CCCN1CCOCC1 [Compound 15] | 1
O=C1NC(N2CCC(N3CCOCC3)CC2)=N/C1=C\c1cccc(Oc2ccccc2)c1 [Compound 9] | 2
Cl.O=C1N=C(N2CCC(N3CCOCC3)CC2)N/C1=C\c1cccc2ccccc12 [Compound 11] | 2

Asked: Consider the molecule shown here: O=C1NC(N2CCC(N3CCOCC3)CC2)=N/C1=C\c1ccc(Oc2ccccc2)cc1 [Compound 10] What is its recorded Number of TLC spots?
Given back: 1

###

# study-system: CYP3A4 (Homo sapiens, UniProt P08684)
# Sequence (P08684 whole entry): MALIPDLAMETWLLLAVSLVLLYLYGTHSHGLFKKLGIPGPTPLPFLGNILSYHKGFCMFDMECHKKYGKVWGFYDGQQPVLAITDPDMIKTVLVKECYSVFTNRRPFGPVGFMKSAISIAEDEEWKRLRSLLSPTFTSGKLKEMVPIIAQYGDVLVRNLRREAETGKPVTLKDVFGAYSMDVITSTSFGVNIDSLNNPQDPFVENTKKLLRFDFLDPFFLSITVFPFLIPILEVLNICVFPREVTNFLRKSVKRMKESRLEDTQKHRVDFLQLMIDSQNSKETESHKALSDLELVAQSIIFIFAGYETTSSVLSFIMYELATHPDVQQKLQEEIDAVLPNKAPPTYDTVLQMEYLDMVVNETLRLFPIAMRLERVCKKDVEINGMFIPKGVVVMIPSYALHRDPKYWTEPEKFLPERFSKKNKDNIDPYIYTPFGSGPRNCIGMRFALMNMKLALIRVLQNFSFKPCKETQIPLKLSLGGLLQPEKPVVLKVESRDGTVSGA
# assay-summary: Luminescent CYP3A4 P450-Glo assay
readout-kind: pIC50
Give bare numbers, as −log10 of the molar value.

Asked: Kindly state the measured pIC50 obtained for NC1=N/C(=C\c2ccc3c(c2)Cc2ccccc2-3)C(=O)N1CCCN1CCOCC1 with CYP3A4 (Homo sapiens, UniProt P08684).
Given back: 4.60

###

# assay-summary: Stability in acidic and basic conditions (TLC)
# Type: physicochemical
# condition-parameters: basic conditions, 48 h; 1 = stable
I'd be grateful if you could share measured Number of TLC spots for these entries.

Sample answers from the record:
item-smiles | Number of TLC spots
O=C1NC(N2CCC(N3CCOCC3)CC2)=N/C1=C\c1cccc(Oc2ccccc2)c1 | 2
O=C1NC(N2CCC(N3CCOCC3)CC2)=N/C1=C\c1ccc(Oc2ccccc2)cc1 | 2
Cl.O=C1N=C(N2CCC(N3CCOCC3)CC2)N/C1=C\c1cccc2ccccc12 | 2
NC1=N/C(=C\c2ccc(-c3ccccc3)cc2)C(=O)N1CCCN1CCOCC1 | 2

Asked: Consider the compound shown here: NC1=N/C(=C\c2ccc3c(c2)Cc2ccccc2-3)C(=O)N1CCCN1CCOCC1 What is its recorded Number of TLC spots?
Given back: 4
